measured-on: human Siglec-2/CD22 protein (Homo sapiens)
Sequence (P20273 20-847): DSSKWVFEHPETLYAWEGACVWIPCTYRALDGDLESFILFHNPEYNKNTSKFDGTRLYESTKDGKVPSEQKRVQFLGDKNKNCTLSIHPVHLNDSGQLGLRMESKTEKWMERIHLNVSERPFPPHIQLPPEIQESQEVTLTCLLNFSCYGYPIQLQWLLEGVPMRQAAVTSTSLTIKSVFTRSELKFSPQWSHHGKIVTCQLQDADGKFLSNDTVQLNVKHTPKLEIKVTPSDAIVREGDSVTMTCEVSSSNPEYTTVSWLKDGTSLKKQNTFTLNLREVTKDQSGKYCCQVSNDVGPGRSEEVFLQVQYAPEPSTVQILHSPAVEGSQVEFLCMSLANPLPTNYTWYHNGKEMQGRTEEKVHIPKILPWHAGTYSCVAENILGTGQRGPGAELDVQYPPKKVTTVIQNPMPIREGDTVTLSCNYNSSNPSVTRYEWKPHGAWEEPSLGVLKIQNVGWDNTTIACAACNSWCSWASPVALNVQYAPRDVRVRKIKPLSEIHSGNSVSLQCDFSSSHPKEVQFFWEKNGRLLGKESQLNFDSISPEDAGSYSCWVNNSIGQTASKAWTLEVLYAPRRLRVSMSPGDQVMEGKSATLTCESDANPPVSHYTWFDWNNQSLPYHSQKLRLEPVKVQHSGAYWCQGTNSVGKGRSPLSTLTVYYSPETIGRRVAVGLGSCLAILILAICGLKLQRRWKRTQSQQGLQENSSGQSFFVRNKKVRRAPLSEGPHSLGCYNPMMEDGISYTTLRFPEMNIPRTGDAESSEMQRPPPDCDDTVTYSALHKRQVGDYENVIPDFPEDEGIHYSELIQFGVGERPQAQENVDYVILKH
run-description: SPR binding affinity to human CD22
condition-description: steady-state analysis
The following compounds are shown together with reported Kd values.

{"structure-as-smiles": "CC(=O)NCCOCCOCCOCCOCCNC(=O)NCCCCCCO[C@]1(C(=O)O)C[C@H](O)[C@@H](NC(C)=O)[C@H]([C@H](O)[C@H](O)CNC(=O)c2cccc(Cl)c2)O1", "measured-on": "human Siglec-2/CD22 protein (Homo sapiens)", "Kd": "1 to 10 µM"}
{"structure-as-smiles": "C#CCOCCNC(=O)CCCCCCO[C@]1(C(=O)O)C[C@H](O)[C@@H](NC(=O)CO)[C@H]([C@H](O)[C@H](O)CNC(=O)Cc2ccc(Cl)c(F)c2)O1", "measured-on": "human Siglec-2/CD22 protein (Homo sapiens)", "Kd": "< 1 µM"}
{"structure-as-smiles": "CC(=O)NCCOCCOCCOCCOCCn1cc(COCCCCCCO[C@]2(C(=O)O)C[C@H](O)[C@@H](NC(=O)CO)[C@H]([C@H](O)[C@H](O)CNC(=O)Cc3ccc(C(F)F)cc3)O2)nn1", "measured-on": "human Siglec-2/CD22 protein (Homo sapiens)", "Kd": "< 1 µM"}
{"structure-as-smiles": "C#CCCOc1cccc(CO[C@]2(C(=O)O)C[C@H](O)[C@@H](NC(=O)CO)[C@H]([C@H](O)[C@H](O)CNC(=O)Cc3ccc(-c4ccccc4)cc3)O2)c1", "measured-on": "human Siglec-2/CD22 protein (Homo sapiens)", "Kd": "< 1 µM"}
{"structure-as-smiles": "C#CCCOc1ccc(CO[C@]2(C(=O)O)C[C@H](O)[C@@H](NC(=O)CO)[C@H]([C@H](O)[C@H](O)CNC(=O)C(F)(F)c3ccccc3)O2)cc1", "measured-on": "human Siglec-2/CD22 protein (Homo sapiens)", "Kd": "1 to 10 µM"}
{"structure-as-smiles": "C#CCOCCOCCO[C@]1(C(=O)O)C[C@H](O)[C@@H](NC(=O)C(C)(C)O)[C@H]([C@H](O)[C@H](O)CNC(=O)Cc2ccc(-c3ccc(O)cc3)cc2)O1", "measured-on": "human Siglec-2/CD22 protein (Homo sapiens)", "Kd": "1 to 10 µM"}
{"structure-as-smiles": "C#CCOCCOCCO[C@]1(C(=O)O)C[C@H](O)[C@@H](NC(C)=O)[C@H]([C@H](O)[C@H](O)CNCc2cccc(Oc3ccccc3)c2)O1", "measured-on": "human Siglec-2/CD22 protein (Homo sapiens)", "Kd": "< 1 µM"}
{"structure-as-smiles": "C#CCOCCOCCO[C@]1(C(=O)O)C[C@H](O)[C@@H](NC(=O)CO)[C@H]([C@H](O)[C@H](O)CNC(=O)c2ccccc2Cl)O1", "measured-on": "human Siglec-2/CD22 protein (Homo sapiens)", "Kd": "> 10 µM"}
{"structure-as-smiles": "C#CCOCCCCCCO[C@]1(C(=O)O)C[C@H](O)[C@@H](NC(=O)CO)[C@H]([C@H](O)[C@H](O)CNC(=O)Cc2ccc(Cl)c(F)c2)O1", "measured-on": "human Siglec-2/CD22 protein (Homo sapiens)", "Kd": "< 1 µM"}
{"structure-as-smiles": "C#CCOCCOCCO[C@]1(C(=O)O)C[C@H](O)[C@@H](NC(=O)CO)[C@H]([C@H](O)[C@H](O)CNC(=O)Cc2ccc(-c3cc[nH]c(=O)c3)cc2)O1", "measured-on": "human Siglec-2/CD22 protein (Homo sapiens)", "Kd": "> 10 µM"}
{"structure-as-smiles": "C#CCOCCCCCCO[C@]1(C(=O)O)C[C@H](O)[C@@H](NC(=O)NCCO)[C@H]([C@H](O)[C@H](O)CNC(=O)Cc2ccc(Cl)cc2)O1", "measured-on": "human Siglec-2/CD22 protein (Homo sapiens)", "Kd": "1 to 10 µM"}
{"structure-as-smiles": "CCCNC(=O)CCCCCCO[C@]1(C(=O)O)C[C@H](O)[C@@H](NC(=O)CO)[C@H]([C@H](O)[C@H](O)CNC(=O)Cc2cccc(O)c2)O1", "measured-on": "human Siglec-2/CD22 protein (Homo sapiens)", "Kd": "1 to 10 µM"}
{"structure-as-smiles": "C#CCOCCOCCO[C@]1(C(=O)O)C[C@H](O)[C@@H](NC(=O)CO)[C@H]([C@H](O)[C@H](O)CNC(=O)Cc2ccc(Cl)c(O)c2)O1", "measured-on": "human Siglec-2/CD22 protein (Homo sapiens)", "Kd": "< 1 µM"}
{"structure-as-smiles": "C#CCOCCOCCO[C@]1(C(=O)O)C[C@H](O)[C@@H](NC(=O)CO)[C@H]([C@H](O)[C@H](O)CNC(=O)Cc2ccc(-c3ccccc3)cc2O)O1", "measured-on": "human Siglec-2/CD22 protein (Homo sapiens)", "Kd": "1 to 10 µM"}
{"structure-as-smiles": "C#CCCCCCCO[C@]1(C(=O)O)C[C@H](O)[C@@H](NC(=O)CO)[C@H]([C@H](O)[C@H](O)CNC(=O)c2cccc(Oc3ccccc3)c2)O1", "measured-on": "human Siglec-2/CD22 protein (Homo sapiens)", "Kd": "< 1 µM"}
{"structure-as-smiles": "CC(=O)NCCOCCOCCOCCOCCC(=O)NCCCCCCO[C@]1(C(=O)O)C[C@H](O)[C@@H](NC(C)=O)[C@H]([C@H](O)[C@H](O)CNC(=O)c2cccc(Cl)c2)O1", "measured-on": "human Siglec-2/CD22 protein (Homo sapiens)", "Kd": "1 to 10 µM"}
{"structure-as-smiles": "C#CCOCCCCCCO[C@]1(C(=O)O)C[C@H](O)[C@@H](NC(=O)CO)[C@H]([C@H](O)[C@H](O)CNC(=O)Cc2ccc(-c3ccc(NC(C)=O)cc3)cc2)O1", "measured-on": "human Siglec-2/CD22 protein (Homo sapiens)", "Kd": "< 1 µM"}
{"structure-as-smiles": "C#CCOCCOCCO[C@]1(C(=O)O)C[C@H](O)[C@@H](NC(=O)CO)[C@H]([C@H](O)[C@H](O)CNC(=O)Cc2cc(O)cc(Cl)c2)O1", "measured-on": "human Siglec-2/CD22 protein (Homo sapiens)", "Kd": "< 1 µM"}
{"structure-as-smiles": "C#CCOCCCCCCO[C@]1(C(=O)O)C[C@H](O)[C@@H](Nc2c(N)c(=O)c2=O)[C@H]([C@H](O)[C@H](O)CNC(=O)Cc2ccc(Cl)cc2)O1", "measured-on": "human Siglec-2/CD22 protein (Homo sapiens)", "Kd": "< 1 µM"}
